src = ChEMBL document CHEMBL1201862

# subject.of.test: DNA dC->dU-editing enzyme APOBEC-3G (Homo sapiens)
# Sequence (Q9HC16 whole entry): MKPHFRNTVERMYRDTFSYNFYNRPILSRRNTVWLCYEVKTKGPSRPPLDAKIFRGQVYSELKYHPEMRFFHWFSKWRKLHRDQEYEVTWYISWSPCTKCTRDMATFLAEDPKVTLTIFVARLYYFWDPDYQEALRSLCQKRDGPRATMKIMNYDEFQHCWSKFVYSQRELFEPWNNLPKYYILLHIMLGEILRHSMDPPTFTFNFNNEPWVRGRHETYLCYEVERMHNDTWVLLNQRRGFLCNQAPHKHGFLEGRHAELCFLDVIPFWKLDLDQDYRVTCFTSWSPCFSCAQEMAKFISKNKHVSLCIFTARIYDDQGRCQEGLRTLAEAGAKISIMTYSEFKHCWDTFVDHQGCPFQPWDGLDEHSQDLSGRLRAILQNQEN
# method.description: Dose Response confirmation of small molecule APOBEC3G DNA Deaminase Inhibitors via a fluorescence-based single-stranded DNA deaminase assay. [Related pubchem assays (depositor defined):AID493012, AID493028]
# Format: functional
Activity calls are given as the source filed them. No stated cut-off is given here; in the data, actives have a measured IC50 and inactives only a lower limit.
endpoint: IC50

The examples below pair each entry with its known result.
CCOC(=O)CSc1nnc(S)s1 = 15 µM (active)
O=[N+]([O-])c1ccc(Cl)c(/C=N/n2c(S)nnc2-c2ccncc2)c1 = 4.79 µM (active)
C/N=c1/nc(-c2ccccc2)n(-c2ccccc2)s1 = 15.9 µM (active)
Sc1nnc(-c2ccccn2)n1/N=C/c1cccc(Cl)c1 = 2.81 µM (active)

Now look at this one.
Briefly, IC50 measured for "CCCCn1c(-c2ccco2)n[nH]c1=S" : 8.1 µM (active)
